Documented survival across a set of molecules
# Test system: Wild type
# assay.protocol: S. aureus survival, RN4220 and DeltatarO strains – OD600, teichoic acid synthesis inhibitors, primary screen (AID 463173)
# conditions: S. aureus RN4220 wild type/DeltatarO growth, OD600, 18 h, hits give low values, screened at 18.75 µg/mL (by protocol)
Among all 52,000 compounds or so, about 1,700 (3.3%) were called active. Only a selection was taken, and actives are over-represented in it overall.
Give the quantity in %, number only.

Problem: What measured survival goes with COc1ccc(CCNC(=O)c2cc(=O)[nH]c3ccc(S(=O)(=O)N4CCCCC4C)cc23)cc1OC (centres undefined) ?
Result: 127

Next:
Problem: What measured survival goes with COc1ccccc1C(=O)N1c2ccccc2C(C)(c2ccc(Cl)cc2)CC1(C)C (centres undefined) ?
Result: 2

Problem: What measured survival goes with "CCOc1ccc(-c2cc3nc(C4CCN(C(=O)OC(C)(C)C)CC4)c(C(=O)Nc4ccc(C)c(F)c4)cn3n2)cc1" ?
Result: 86

Problem: What measured survival goes with CC(=O)N1N=C(c2ccccc2)CC1c1ccccc1 (centres undefined) ?
Result: 104

Problem: What measured survival goes with "Cc1nnc(SCc2nc(-c3ccc(Cl)cc3)no2)n1-c1ccc(F)cc1" ?
Result: 100

Problem: What measured survival goes with "CCN(C(=O)CSc1nc2ccccc2n1CC(=O)Nc1ccc(F)cc1F)c1ccccc1" ?
Result: 73

Problem: What measured survival goes with "Cc1ccc(NC(=O)c2ccccc2Br)c(C(=O)c2ccccc2)c1" ?
Result: 25

====

# Test system: Wild type
# assay.protocol: S. aureus survival, RN4220 and DeltatarO strains – OD600, teichoic acid synthesis inhibitors, primary screen (AID 463173)
# conditions: S. aureus RN4220 wild type/DeltatarO growth, OD600, 18 h, screened at 18.75 µg/mL (by protocol)
The campaign covered roughly 52,000 compounds. About 1,700 (3.3%) were called active. Rule as the data show it: active = survival mostly below about 52% (no sharp cut-off); inactive = mostly above about 56%. The full list was thinned out, with actives kept by preference.
Please reply with one of these outcomes: active, inactive

Sample answers from the record:
Problem: Status in this test for CC(Oc1ccccc1F)C(=O)N1CCC(c2nc3ccccc3o2)CC1 (configuration not stated) ?
Result: active

Problem: Status in this test for "Cc1cccc(C)c1OCC(=O)N1CCC(c2nc3ccccc3o2)CC1" ?
Result: inactive

Problem: Status in this test for "N#Cc1ccc2ccn(CC(N)=O)c2c1" ?
Result: inactive

Problem: Status in this test for Cc1cccc(OC(C)C(=O)N2CCC(c3nc4ccccc4o3)CC2)c1C (configuration not stated) ?
Result: inactive

Problem: Status in this test for "COCCNC(=O)C(=O)Nc1c2c(nn1-c1ccccc1)CS(=O)(=O)C2" ?
Result: inactive

Next:
Problem: Status in this test for "CCCCn1c(NCc2ccc(OC)cc2O)nc2ccccc21" ?
Result: inactive

Problem: Status in this test for "CCOC(=O)C(C)(C)Sc1nnc(COc2ccccc2)n1CC" ?
Result: inactive

Problem: Status in this test for "O=C(Nc1ccc(F)c(Cl)c1)C1CCN(S(=O)(=O)c2ccc3c(c2)CCCN3C(=O)C2CCC2)CC1" ?
Result: inactive

Problem: Status in this test for "Cc1ccc(CNC(=O)CCCN2C(=O)CCn3nc(-c4cn(C)c5ccccc45)cc32)cc1" ?
Result: inactive

Problem: Status in this test for "CC(=O)N1CCN(C(=O)C(=O)Nc2c3c(nn2-c2ccc(Cl)cc2)CSC3)CC1" ?
Result: active

====

Documented survival across a set of compounds
# System: Wild type
# assay.protocol: S. aureus survival, RN4220 and DeltatarO strains – OD600, teichoic acid synthesis inhibitors, primary screen (AID 463173)
# conditions: S. aureus RN4220 wild type/DeltatarO growth, OD600, 18 h, hits give low values, screened at 18.75 µg/mL (by protocol)
The whole screen tested about 52,000 compounds, of which about 1,700 (3.3%) were called active. The sample holds actives, similar compounds and a random draw of the others, so the mix is not that of the screen.
Give the quantity in %, number only.

Problem: What measured survival goes with CC(=O)N1c2c(cc(Br)cc2S(=O)(=O)NCc2ccccc2Cl)CC1C (stereo unspecified) ?
Result: 73

Problem: What measured survival goes with O=C1NC(=O)C(Nc2cccc3ccccc23)S1 (stereo unspecified) ?
Result: 104

Problem: What measured survival goes with "Cc1ccccc1N(C)S(=O)(=O)c1nnc(NC(=O)c2ccccc2F)s1" ?
Result: 33

Next:
Problem: What measured survival goes with "O=C(Cn1c(=O)c2ccccc2n(CC(=O)Nc2ccccc2F)c1=O)NCCc1ccccc1" ?
Result: 89

Problem: What measured survival goes with "Cc1cccc(-n2ncc3c(Nc4ccc(Oc5ccc(Cl)cc5)cc4)ncnc32)c1" ?
Result: 88

Problem: What measured survival goes with "COc1cccc(NC(=O)Cn2c(=O)n(CCCCC(=O)NCc3ccc4c(c3)OCO4)c(=O)c3ccccc32)c1" ?
Result: 92

Problem: What measured survival goes with "Cc1ccc(CNC(=O)c2ccc(CSCc3ccccc3Cl)o2)cc1" ?
Result: 49

Problem: What measured survival goes with "CCc1ccc(NC(=O)CN(c2ccc(C)cc2)S(=O)(=O)c2c(C)nn(C)c2C)cc1" ?
Result: 76

Problem: What measured survival goes with Fc1ccc(C(c2nnnn2C2CCCC2)N2CCc3ccccc32)cc1 (stereo unspecified) ?
Result: 122

Problem: What measured survival goes with "CC(C)(CO)NC(=O)c1cc(-c2ccc(Cl)cc2Cl)on1" ?
Result: 123

Problem: What measured survival goes with "CCCCNC(=O)CSc1nc2ccccc2nc1Cc1ccc(Cl)cc1" ?
Result: 146

====

# Test system: Wild type
# assay.protocol: S. aureus survival, RN4220 and DeltatarO strains – OD600, teichoic acid synthesis inhibitors, primary screen (AID 463173)
# conditions: S. aureus RN4220 wild type/DeltatarO growth, OD600, 18 h, screened at 18.75 µg/mL (by protocol)
In all, about 52,000 compounds went through this assay and about 1,700 (3.3%) were called active. Rule as the data show it: active = survival mostly below about 52% (no sharp cut-off); inactive = mostly above about 56%. The sample as a whole holds a higher share of actives than the screen did.
Please reply with one of these outcomes: true (1) (active), false (0) (inactive)

Problem: Status in this test for "Cc1ccc(Cn2c(C(=O)O)c(CNC3CCCCCC3)c3ccc(C)cc32)cc1" ?
Result: false (0)

Problem: Status in this test for CCC1CN(C(=O)C2CCN(S(=O)(=O)c3c(C)noc3/C=C/c3ccccc3F)CC2)c2cc(Cl)ccc2O1 (stereo not drawn) ?
Result: false (0)

Problem: Status in this test for "Cc1cccc(-c2cc3nc(-c4ccccc4)cc(=O)n3[nH]2)c1" ?
Result: false (0)

Problem: Status in this test for "Cc1[nH]n2c(=O)cc(-c3ccc(Cl)cc3)nc2c1-c1ccccc1" ?
Result: true (1)

Problem: Status in this test for Cc1ccc(N2C(=O)CS(=O)(=O)C23C(=O)N(Cc2cccc(F)c2)c2ccccc23)cc1Cl (stereo not drawn) ?
Result: false (0)

Problem: Status in this test for "O=C(NCCCN1CCN(c2ccccc2F)CC1)c1nnc(Cc2ccc(Cl)cc2Cl)o1" ?
Result: false (0)

Problem: Status in this test for "O=C(Nc1nc2nc(-c3ccccc3)cc(=O)n2[nH]1)c1ccc(Cl)cc1" ?
Result: false (0)

Problem: Status in this test for "O=C(/C=C/c1ccc(Cl)cc1)N1CCC(c2nc3ccccc3o2)CC1" ?
Result: false (0)

Problem: Status in this test for "CCN(CC)/C(=N/OCc1ccc(Cl)cc1Cl)c1nonc1N" ?
Result: false (0)

Problem: Status in this test for "CC(C)c1ccccc1NC(=O)Cn1cnc2c1c(=O)n(C)c(=O)n2C" ?
Result: false (0)

Problem: Status in this test for CCC(C(=O)NCc1ccccc1Cl)n1c(=O)c2cccn2c2ccccc21 (stereo not drawn) ?
Result: false (0)

Problem: Status in this test for "CC(=O)c1ccc(NC(=O)Cn2nc(C(F)(F)F)c3c2CCC3)cc1" ?
Result: false (0)

Problem: Status in this test for "Nc1nc2nc(-c3ccccc3)cc(=O)n2[nH]1" ?
Result: false (0)

====

# System: Wild type
# assay.protocol: S. aureus survival, RN4220 and DeltatarO strains – OD600, teichoic acid synthesis inhibitors, primary screen (AID 463173)
# conditions: S. aureus RN4220 wild type/DeltatarO growth, OD600, 18 h, screened at 18.75 µg/mL (by protocol)
Screen size: about 52,000 compounds; about 1,700 (3.3%) were called active. Cut-off read from the data, not from the text of the source: active = survival mostly below about 52% (no sharp cut-off); inactive = mostly above about 56%. This is one part of a sample in which actives are shown more often than they occur.
Please reply with one of these outcomes: active, inactive

Sample answers from the record:
Problem: Status in this test for COc1ccc(C(=O)/C=C/c2cn(CC(O)CN(CC(C)C)CC(C)C)c3ccccc23)cc1 (stereo unspecified) ?
Result: inactive

Problem: Status in this test for "Cc1ccc(SCc2nc(-c3ccc(C(=O)NCc4ccc(Cl)cc4)cc3)oc2C)cc1" ?
Result: inactive

Next:
Problem: Status in this test for C=Cc1ccc(Cn2c(=O)n(CC3CCC(C(=O)NC(C)C)CC3)c(=O)c3sccc32)cc1 (stereo unspecified) ?
Result: inactive

Problem: Status in this test for "COc1ccc2ncc3c(-c4ccccc4)nn(-c4ccc(C)c(C)c4)c3c2c1" ?
Result: active

Problem: Status in this test for "CCc1ccc(-c2nn(CC(=O)NC3CCCCC3)c3c2cnc2ccc(F)cc23)cc1" ?
Result: inactive

Problem: Status in this test for "N#CCOc1nc(OCC#N)nc(OCC#N)n1" ?
Result: active

Problem: Status in this test for CCCN(CCC)CC(O)Cn1cc(/C=C/C(=O)c2ccc(C)cc2)c2ccccc21 (stereo unspecified) ?
Result: active

Problem: Status in this test for CCc1cccc(C)c1NC(=O)C(CC)Sc1nncn2c1cc1occc12 (stereo unspecified) ?
Result: inactive

Problem: Status in this test for "COC(=O)c1scc(-c2ccccc2)c1S(=O)(=O)Nc1cccc(C)c1C" ?
Result: inactive

Problem: Status in this test for "COc1ccc(-n2nc(-c3ccc(C)cc3)c3cnc4cc(F)c(F)cc4c32)cc1" ?
Result: inactive

Problem: Status in this test for "CCc1ccc(CNC(=O)c2ccc(-c3nc(CSc4ccc(C)cc4)c(C)o3)cc2)cc1" ?
Result: inactive

Problem: Status in this test for "Cc1ccc(-c2nn(CC(=O)NC3CCCCC3)c3c2cnc2ccc(F)cc23)cc1C" ?
Result: active

Problem: Status in this test for "CC(=O)N1CCc2cc(Br)cc(S(=O)(=O)CCC(=O)N3CCN(c4cccc(C)c4C)CC3)c21" ?
Result: inactive
